# System: BxPC3 cells
# Protocol: MTT cytotoxicity / cell viability assay, BxPC3
# Format: cell-based
# Condition label: Homo sapiens, BXPC-3, 72 hours post-treatment, read-out: IC50 values in specified pancreatic cancer cell line
pIC50: −log10 of the molar value.

{"Record smiles": "CNCc1ccc(-c2[nH]c3cc(F)cc4c3c2CCNC4=O)cc1", "pIC50": 5.60}
{"Record smiles": "CCS(=O)(=O)Nc1ccc(Oc2ccc(F)cc2F)c(-c2cn(C)c(=O)c3[nH]ccc23)c1", "pIC50": 6.56}

====

# Tested on: MIA-PaCa2 cells
# Protocol: MTT cytotoxicity / cell viability assay, MIA-PaCa2
# Type: cell-based
# Condition label: Homo sapiens, MIA PaCa-2, 72 hours post-treatment, read-out: IC50 values in specified pancreatic cancer cell line
pIC50: −log10 of the molar value.

{"Record smiles": "CCS(=O)(=O)Nc1ccc(Oc2ccc(F)cc2F)c(-c2cn(C)c(=O)c3[nH]ccc23)c1", "pIC50": 6.59}
{"Record smiles": "CNCc1ccc(-c2[nH]c3cc(F)cc4c3c2CCNC4=O)cc1", "pIC50": 5.61}
